- test-method-notes: in vivo
- condition-context: NCr athymic, mouse, po, 30 mg/kg, Total tumor conc.
attribute-measured: concentration at 2 h (µM)
Give bare numbers, in µM.

### Prompt Output concentration at 2 h of Cn1ncc2cc(-c3cnc(N)c(Cl)c3N3CCC4(CCNC4=O)CC3)ccc21 [Compound 109]
### Response 3.42

----------
- test-method-notes: Thermodynamic solubility determination
- Assay type: physicochemical
- condition-context: phosphate buffer, pH 7.4, free base, pH 7.4, 37 °C; read-out: Solubility Therm.
attribute-measured: solubility at 24 h (µg/mL)
Give bare numbers, in µg/mL.

### Prompt Quote solubility at 24 h reported for CC(C)(O)Cn1cc(-c2ccc(-c3cncc(Cl)c3N3CCC4(CCNC4=O)CC3)cc2)cn1 [Compound 18] please.
### Response 33

----------
- test-method-notes: In vivo mouse PK
- condition-context: female, NMRI, plasma, iv, 0.2 mg/kg, Cl, 0.2 mg/kg iv
Use Condition met when the recorded clearance is no lower than 50 mL/min/kg; use Condition not met when it is lower.

| entry-smiles | class-label |
| --- | --- |
| Cn1cc(-c2ccc(-c3cnc(N)c(Cl)c3N3CCC4(CC3)CNC(=O)O4)cc2)cn1 | Condition not met |

### Prompt Tell me whether clearance is at least 50 mL/min/kg here: `CN1c2ccc(-c3cncc(F)c3N3CCC4(CCNC4=O)CC3)cc2CS1(=O)=O`
### Response Condition met

### Prompt Hi, just wondering whether `CN1c2ccc(-c3cncc(Cl)c3N3CCC4(CC3)CNC(=O)O4)cc2CS1(=O)=O` shows clearance of 50 mL/min/kg or higher.
### Response Condition not met

### Prompt Answer whether clearance of `O=C1NCCC12CCN(c1c(Cl)cncc1-c1ccc3c(c1)CS(=O)(=O)N3)CC2` is greater than or equal to 50 mL/min/kg.
### Response Condition met

----------
- test-method-notes: Human Clint determination
- Assay type: in vitro ADME
- condition-context: pH 7.4; human microsomes
attribute-measured: microsomal CLint at 1 μM (µL/min/mg)
Answers are plain numbers, in µL/min/mg.

### Prompt State its microsomal CLint at 1 μM: `CC(C)n1ncc2ccc(-c3cnc(N)c(Cl)c3N3CCC4(CCNC4=O)CC3)cc21`
### Response 202

----------
- test-method-notes: in vivo
- condition-context: NCr athymic, mouse, po, 30 mg/kg, Total tumor conc.
attribute-measured: concentration at 24 h

### Prompt Entry `Cn1ncc2cc(-c3cnc(N)c(Cl)c3N3CCC4(CCNC4=O)CC3)ccc21` needs its concentration at 24 h filled in; supply it.
### Response 796 nM

----------
- test-method-notes: in vivo
- condition-context: NCr athymic, mouse, po, 30 mg/kg, Free tumor conc.
attribute-measured: concentration at 24 h
Don't forget the unit after the value.

### Prompt Return the recorded concentration at 24 h value; entry: `Cn1ncc2cc(-c3cnc(N)c(Cl)c3N3CCC4(CCNC4=O)CC3)ccc21`
### Response 28 nM

----------
- test-method-notes: in vivo
- condition-context: NCr athymic, mouse, po, 30 mg/kg, Free Plasma conc.
attribute-measured: concentration at 6 h (nM)
Give bare numbers, in nM.

### Prompt Given the compound Cn1ncc2cc(-c3cnc(N)c(Cl)c3N3CCC4(CCNC4=O)CC3)ccc21 [Compound 109] , write its reported concentration at 6 h.
### Response 29

----------
I'd be grateful if you could share measured Vd for these entries.
- test-method-notes: In vivo mouse PK
- condition-context: female, NMRI, plasma, iv, 0.2 mg/kg
Answers are plain numbers, in L/kg.

| entry-smiles | Vd, L/kg |
| --- | --- |
| Cn1cc(-c2ccc(-c3cncc(Cl)c3N3CCC4(CC3)NC(=O)NC4=O)cc2)cn1 | 1.26 |
| CN1c2ccc(-c3cnc(N)c(Cl)c3N3CCC4(CC3)CNC(=O)O4)cc2CS1(=O)=O | 1.81 |
| CN1c2ccc(-c3cncc(F)c3N3CCC4(CC3)CNC(=O)O4)cc2CS1(=O)=O | 2.67 |
| O=C1NCCC12CCN(c1c(Cl)cncc1-c1ccc3c(c1)CS(=O)(=O)N3)CC2 | 1.19 |

Look at each compound and report its Vd.
1. Cn1cc(-c2ccc(-c3cnc(N)c(Cl)c3N3CCC4(CCNC4=O)CC3)cc2)cn1
2. CN1c2ccc(-c3cncc(Cl)c3N3CCC4(CC3)CNC(=O)O4)cc2CS1(=O)=O
3. Cn1cc(-c2ccc(-c3cncc(Cl)c3N3CCC4(CC3)NC(=O)CNC4=O)cc2)cn1
4. CC1=NC2(CCN(c3c(Cl)cncc3-c3ccc4c(c3)CS(=O)(=O)N4C)CC2)C(=O)N1

### Response
0.74
1.34
1.84
1.96

----------
- test-method-notes: In vivo mouse PK
- condition-context: female, NMRI, plasma, iv, 0.2 mg/kg
attribute-measured: Vd (L/kg)
One number for each entry, in L/kg.

Check out these entries, answers already filled in.
| compound | Vd (L/kg) |
| --- | --- |
| Cn1cc(-c2ccc(-c3cncc(C(F)(F)F)c3N3CCC4(CC3)CNC(=O)O4)cc2)cn1 [Compound 72] | 2.3 |
| Cn1ncc2cc(-c3cnc(N)c(Cl)c3N3CCC4(CCNC4=O)CC3)ccc21 [Compound 109] | 0.63 |
| Cn1cc(-c2ccc(-c3cncc(Cl)c3N3CCC4(CC3)NCNC4=O)cc2)cn1 [Compound 44] | 1.12 |
| Cn1cc(-c2ccc(-c3cnc(N)c(C(F)(F)F)c3N3CCC4(CC3)CNC(=O)O4)cc2)cn1 [Compound 95] | 1.93 |
| CC(C)(O)Cn1cc(-c2ccc(-c3cncc(Cl)c3N3CCC4(CCNC4=O)CC3)cc2)cn1 [Compound 18] | 0.8 |
| CN1c2ccc(-c3cncc(F)c3N3CCC4(CCNC4=O)CC3)cc2CS1(=O)=O [Compound 61] | 1.86 |
| Nc1n[nH]c2cc(-c3cncc(Cl)c3N3CCC4(CCNC4=O)CC3)ccc12 [Compound 25] | 1.21 |

Let us examine a further case.
### Prompt Give Vd for the following compound: O=C1NCCC12CCN(c1c(Cl)cncc1-c1ccc(-c3cnn(CCO)c3)cc1)CC2 [Compound 17]
### Response 1.61

----------
- test-method-notes: Mouse Clint determination
- Assay type: in vitro ADME
- condition-context: pH 7.4; mouse microsomes
attribute-measured: microsomal CLint at 1 μM (µL/min/mg)
Answers are plain numbers, in µL/min/mg.

### Prompt Let me know recorded microsomal CLint at 1 μM for CC(C)n1ncc2ccc(-c3cnc(N)c(Cl)c3N3CCC4(CCNC4=O)CC3)cc21 [Compound 111] , thanks.
### Response 202

----------
Would you mind telling me the reported Vd of each entry?
- test-method-notes: In vivo mouse PK
- condition-context: female, NMRI, plasma, iv, 0.2 mg/kg
Answers are plain numbers, in L/kg.

| entry-smiles | measurement |
| --- | --- |
| CN1c2ccc(-c3cnc(N)c(F)c3N3CCC4(CCNC4=O)CC3)cc2CS1(=O)=O | 0.86 |
| CC(C)(O)Cn1cc(-c2ccc(-c3cnc(N)c(Cl)c3N3CCC4(CCNC4=O)CC3)cc2)cn1 | 1.22 |
| Cc1nc(-c2ccc(-c3cncc(Cl)c3N3CCC4(CCNC4=O)CC3)cc2)cn1C | 6.41 |

Now examine the next entry.
### Prompt Indicate the recorded Vd value for this molecule: `Cn1cc(-c2ccc(-c3cnc(N)c(Cl)c3N3CCC4(CC3)CNC(=O)O4)cc2)cn1`
### Response 1.4

----------
- test-method-notes: in vivo
- condition-context: NCr athymic, mouse, po, 30 mg/kg, Free Plasma conc.
attribute-measured: concentration at 1 h (nM)
Answers are plain numbers, in nM.

### Prompt Return reported concentration at 1 h. Input compound: `Cn1ncc2cc(-c3cnc(N)c(Cl)c3N3CCC4(CCNC4=O)CC3)ccc21`
### Response 523

----------
- test-method-notes: Caco-2 Papp determination
- condition-context: human, Caco-2, pH 7.4
attribute-measured: Papp A→B at 2 h, 1 μM (×10⁻⁶ cm/s)
One number for each entry, in ×10⁻⁶ cm/s.

| molecule | measurement |
| --- | --- |
| CN(C)CCC1(C#N)CCN(c2c(Cl)cncc2-c2ccc3c(c2)CS(=O)(=O)N3C)CC1 [Compound 51] | 35.3 |

# per-item lookup of Papp A→B at 2 h, 1 μM; items listed below
1. O=C1NCCC12CCN(c1c(Cl)cncc1-c1ccc3c(c1)CS(=O)(=O)N3)CC2 [Compound 22]
2. Nc1ncc(-c2ccc3c(N)n[nH]c3c2)c(N2CCC3(CCNC3=O)CC2)c1Cl [Compound 87]
3. Cn1cc(-c2ccc(-c3cncc(Cl)c3N3CCC4(CCNC4=O)CC3)cc2)cn1 [Compound 6]
4. CN(C)CCn1cc(-c2ccc(-c3cncc(Cl)c3N3CCC4(CCNC4=O)CC3)cc2)cn1 [Compound 19]
5. CN(C)c1nn(C)c2cc(-c3cncc(Cl)c3N3CCC4(CCNC4=O)CC3)ccc12 [Compound 102]

### Response
[4.9, 1.3, 23.7, 25.4, 45.9]

Value sought for every listed molecule: Papp A→B at 2 h, 1 μM.
1. Cn1nc(N)c2ccc(-c3cncc(Cl)c3N3CCC4(CCNC4=O)CC3)cc21 [Compound 101]
2. Cc1nc(-c2ccc(-c3cncc(Cl)c3N3CCC4(CCNC4=O)CC3)cc2)cn1C [Compound 21]

### Response
[39, 18.8]
